Value Kind: melting point

Suppose we examine the compound `COc1ccc(Cn2c(=O)n([C@H]3CC[C@H](O)CC3)c3ccc(C(=O)c4ccccc4)cc32)cc1Cl` ; what melting point value has been reported? 160.5 to 162 °C

Same again, this time with `COC(=O)c1ccc2c(c1)n(Cc1ccc(OC)c(Cl)c1)c(=O)n2[C@H]1CC[C@H](O)CC1` 174 to 175 °C

Same again, this time with `COc1ccc(Cn2c(=O)n(C(C)C)c3ccc(C(F)(F)F)cc32)cc1Cl` 153.5 to 155 °C

Same again, this time with `COc1ccc(Cn2c(=O)n(C(C)(C)CO)c3ncc(C(F)(F)F)cc32)cc1Cl` 195 to 197 °C

Same again, this time with `COc1cc(Cn2c(=O)n(C3CCCC3)c3ccc([N+](=O)[O-])cc32)ccc1Cl` 170 to 171.5 °C

Same again, this time with `COc1ccc(Cn2c(=O)n(-c3ccc4[nH]cnc4c3)c3ccc(C(F)(F)F)cc32)cc1Cl` 158 to 160 °C

Same again, this time with `COc1ccc(Cn2c(=O)n(C3CCCCC3)c3ccc(C(F)(F)F)cc32)cc1Cl` 160 to 161 °C

Same again, this time with `COc1ccc2c(c1)n(Cc1ccc(OC)c(OC)c1)c(=O)n2[C@H]1CC[C@H](O)CC1` 176 to 177 °C

Same again, this time with `COc1ccc(Cn2c(=O)n([C@H]3CC[C@@H](O)CC3)c3ncc(C#N)cc32)cc1Cl` 197 to 198 °C

Same again, this time with `COc1ccc(Cn2c(=O)n([C@H]3CC[C@H](NC=O)CC3)c3ccc(C(F)(F)F)cc32)cc1OC` 158 to 160.5 °C

Same again, this time with `COC(=O)c1ccc2c(c1)n(Cc1ccc(OC)c(OC)c1)c(=O)n2[C@H]1CC[C@H](O)CC1` 148 to 149.5 °C

* * *

melting point values, listed per item

Use the examples below as a reference point.
COc1ccc(Cn2c(=O)n(-c3ccc4[nH]cnc4c3)c3ccc(C(F)(F)F)cc32)cc1OC [Example 2(20)]: 174 to 175 °C
COc1ccc(Cn2c(=O)n([C@H]3CC[C@H](NC(=O)OC(C)(C)C)CC3)c3ccc(C(F)(F)F)cc32)cc1Cl [Example 2(99)]: 185.5 to 187 °C
COc1ccc(Cn2c(=O)n([C@H]3CC[C@H](O)CC3)c3ccc(C)cc32)cc1OC [Example 19(4)]: 174 to 175 °C
COc1ccc(Cn2c(=O)n([C@H]3CC[C@H](O)CC3)c3ccc(C(=O)O)cc32)cc1Cl [Example 19(5)]: 275 to 276 °C
COc1ccc(Cn2c(=O)n([C@H]3CC[C@H](O)CC3)c3ncc(C(=O)O)cc32)cc1Cl [Example 19(25)]: 262 to 262.5 °C
COc1ccc(Cn2c(=O)n([C@H]3CC[C@H](O)CC3)c3ncc(C#N)cc32)cc1C [Example 2(101)]: 168 to 169 °C

Suppose we examine the molecule COc1ccc(Cn2c(=O)n([C@H]3CC[C@H](O)CC3)c3ccc(C(F)(F)F)cc32)cc1Cl [Example 2(24)] ; what melting point value has been reported? 167 to 168 °C

* * *

melting point values, listed per item

Use the examples below as a reference point.
COc1ccc(Cn2c(=O)n([C@H]3CC[C@H](O)CC3)c3ccc([N+](=O)[O-])cc32)cc1Cl: 142 to 142.5 °C
COc1ccc(Cn2c(=O)n([C@H](C)CO)c3ccc(C(F)(F)F)cc32)cc1Cl: 108 to 109 °C
COc1ccc(Cn2c(=O)n([C@H]3CC[C@H](O)CC3)c3ccc(C#N)cc32)cc1OC: 209 to 210 °C

Suppose we examine the molecule `COc1ccc(Cn2c(=O)n([C@H](C)CO)c3ncc(C#N)cc32)cc1Cl` ; what melting point value has been reported? 164 to 165 °C

Same again, this time with `COc1ccc(Cn2c(=O)n([C@H]3CC[C@H](O)CC3)c3ccc([N+](=O)[O-])cc32)cc1C#N` 122 to 124 °C

Same again, this time with `COC(=O)c1cnc2c(c1)n(Cc1ccc(OC)c(Cl)c1)c(=O)n2[C@H]1CC[C@H](O)CC1` 146 to 148 °C

Same again, this time with `COc1ccc(Cn2c(=O)n(-c3ccc4[nH]ccc4c3)c3ncc(C#N)cc32)cc1Cl` 281 to 282 °C

* * *

melting point values, listed per item

Use the examples below as a reference point.
COc1ccc(Cn2c(=O)n([C@H]3CC[C@H](O)CC3)c3ccc(C(F)(F)F)cc32)cc1Br [Example 2(31)]: 182 to 182.5 °C
COc1ccc(Cn2c(=O)n([C@H]3CC[C@H](O)CC3)c3ccc(C(C)=O)cc32)cc1Cl [Example 2(22)]: 209 to 210 °C
COc1ccc(Cn2c(=O)n(C(C)(C)C)c3ccc(C(F)(F)F)cc32)cc1Cl [Example 2(32)]: 130.5 to 131.5 °C
COc1ccc(Cn2c(=O)n([C@H]3CCN(C(=O)OC(C)(C)C)C3)c3ccc(C(F)(F)F)cc32)cc1Cl [Example 2(19)]: 157 to 157.5 °C
COc1ccc(Cn2c(=O)n(-c3ccc4nc[nH]c4c3)c3ncc(C#N)cc32)cc1Cl [Example 2(104)]: 163 to 166 °C

Next:
Suppose we examine the molecule COc1ccc(Cn2c(=O)n([C@H]3CC[C@H](O)CC3)c3ccc(C(N)=O)cc32)cc1Cl [Example 20] ; what melting point value has been reported? 291.5 to 292 °C

* * *

Value Kind: melting point

COc1ccc(Cn2c(=O)n(CCO)c3ccc(C(F)(F)F)cc32)cc1Cl [Example 4(7)]: 106 to 107 °C

Suppose we examine the molecule COc1ccc(Cn2c(=O)n([C@H]3CC[C@H](OC(C)=O)CC3)c3ncc(C(F)(F)F)cc32)cc1OC [Example 2(12)] ; what melting point value has been reported? 130 to 133 °C

Same again, this time with COc1ccc(Cn2c(=O)n([C@H]3CC[C@H](O)CC3)c3ccc(S(C)(=O)=O)cc32)cc1Cl [Example 4(3)] 265 to 265.5 °C

Same again, this time with COc1ccc(Cn2c(=O)n([C@H]3CC[C@H](O)CC3)c3ccc(C(F)(F)F)cc32)cc1F [Example 2(30)] 178 to 179 °C

Same again, this time with COc1ccc(Cn2c(=O)n([C@H]3CC[C@H](O)CC3)c3ccc(C(C)=O)cc32)cc1OC [Example 2(7)] 169 to 170 °C

Same again, this time with COc1c(Cl)cc(Cn2c(=O)n([C@H]3CC[C@H](O)CC3)c3ccc([N+](=O)[O-])cc32)cc1Cl [Example 2(26)] 115 to 116 °C

Same again, this time with COc1ccc(Cn2c(=O)n([C@H]3CC[C@H](O)CC3)c3ccc(C(F)(F)F)cc32)cc1OC [Example 1] 108 to 110 °C

Same again, this time with COc1ccc(Cn2c(=O)n(C3CCCC3)c3ncc(C(F)(F)F)cc32)cc1Cl [Example 2(17)] 156 to 157 °C

Same again, this time with COc1ccc(Cn2c(=O)n([C@H]3CC[C@H](OC(C)=O)CC3)c3ncc(C(F)(F)F)cc32)cc1Cl [Example 2(15)] 165 to 166 °C

Same again, this time with COc1ccc(Cn2c(=O)n([C@H]3CC[C@H](O)CC3)c3ncc(C(F)(F)F)cc32)cc1OC [Example 18] 128 to 130 °C

Same again, this time with COc1ccc(Cn2c(=O)n([C@H](C)CO)c3ncc(C(F)(F)F)cc32)cc1Cl [Example 4(2)] 154.5 to 155 °C

Same again, this time with COc1ccc(Cn2c(=O)n(C3CCCC3)c3ncc(C(F)(F)F)cc32)cc1OC [Example 2(13)] 115 to 116 °C

Same again, this time with COc1ccc(Cn2c(=O)n([C@H]3CC[C@H](O)CC3)c3ccc(C#N)cc32)cc1C#N [Example 2(81)] 191 to 193 °C

Same again, this time with COc1ccc(Cn2c(=O)n([C@H]3CCN(C(=O)OC(C)(C)C)C3)c3ccc(C(F)(F)F)cc32)cc1OC [Example 2(18)] 122 to 122.5 °C

Same again, this time with COc1ccc(Cn2c(=O)n([C@H]3CC[C@H](O)CC3)c3ncc(C(F)(F)F)cc32)cc1Cl [Example 19(2)] 121 to 123 °C

Same again, this time with COc1ccc(Cn2c(=O)n([C@H]3CC[C@H](O)CC3)c3ncc(C#N)cc32)cc1C#N [Example 2(102)] 133 to 134 °C

Same again, this time with CCOc1ccc(Cn2c(=O)n([C@H]3CC[C@H](O)CC3)c3ccc(C(F)(F)F)cc32)cc1Cl [Example 2(29)] 147.5 to 149 °C

Same again, this time with CCCCn1c(=O)n(Cc2ccc(OC)c(Cl)c2)c2cc(C(F)(F)F)ccc21 [Example 2(36)] 122 to 124 °C

Same again, this time with COc1ccc(Cn2c(=O)n([C@H]3CCN(C(=O)OC(C)(C)C)C3)c3ncc(C(F)(F)F)cc32)cc1Cl [Example 2(103)] 87 to 89 °C
